Values compiled from paper PMC7687371.

# Test system: NCI-H295R cells
# Assay text: H295R steroidogenesis assay
# Assay type: cell-based, human
# Study conditions: multiple contrast tests
Measured Cortisol, LOEC accompanies every entry in the list below.
Respond numerically; units are µM and should not be typed.

// worked examples, Cortisol, LOEC included
CC1(C(=O)Nc2ccc(O)c(Cl)c2Cl)CCCCC1 [Fenhexamide, fenhexamid] : 3.1
CC1(C)[C@H](C(=O)O[C@H](C#N)c2cccc(Oc3ccccc3)c2)[C@@H]1/C=C(\Cl)C(F)(F)F (racemic) : 3.1
C=CCOC(Cn1ccnc1)c1ccc(Cl)cc1Cl (stereo not shown) : 0.8

Continue with the molecule presented below.
Looking for the measured Cortisol, LOEC of Cc1cc(C2CC2)nc(Nc2ccccc2)n1 , can you help?
25

* * *

# Assay text: PBK model first-order kinetic parameters fitted to in vivo ADME data
# Parameters: species or system rat
# Study conditions: PBK model parameter
Measured Fecal excretion rate from gut (L/h) KFeces accompanies every entry in the list below.
Respond numerically; units are L/h and should not be typed.

// worked examples, Fecal excretion rate from gut (L/h) KFeces included
CC1(C(=O)Nc2ccc(O)c(Cl)c2Cl)CCCCC1 [Fenhexamide, fenhexamid] : 3
C=CCOC(Cn1ccnc1)c1ccc(Cl)cc1Cl (stereo not shown) : 0.5
CC12CC1(C)C(=O)N(c1cc(Cl)cc(Cl)c1)C2=O (stereo not shown) [Procymidone, procymidone, reference compound] : 0.04

Continue with the molecule presented below.
Looking for the measured Fecal excretion rate from gut (L/h) KFeces of COc1ccc(C(=CC(=O)N2CCOCC2)c2ccc(Cl)cc2)cc1OC , can you help?
2

* * *

# Tested on: NCI-H295R cells
# Assay text: H295R steroidogenesis assay
# Type: cell-based, human
# Study conditions: multiple contrast tests
Assay endpoint: DHEA, LOEC (µM)
Respond numerically; units are µM and should not be typed.

Fc1ccc(Oc2ccnc3cc(Cl)cc(Cl)c23)cc1 : 1.6
CC1(C(=O)Nc2ccc(O)c(Cl)c2Cl)CCCCC1 [Fenhexamide, fenhexamid] : 12.5
COc1ccc(C(=CC(=O)N2CCOCC2)c2ccc(Cl)cc2)cc1OC : 25

Continue with the molecule presented below.
Looking for the measured DHEA, LOEC of C=CCOC(Cn1ccnc1)c1ccc(Cl)cc1Cl (stereo not shown) , can you help?
0.8

* * *

Measured Portal GI absorption rate into liver (L/h) KAS accompanies every entry in the list below.
# Assay text: PBK model first-order kinetic parameters fitted to in vivo ADME data
# Parameters: species or system rat
# Study conditions: PBK model parameter
Respond numerically; units are L/h and should not be typed.

CC1(C(=O)Nc2ccc(O)c(Cl)c2Cl)CCCCC1 [Fenhexamide, fenhexamid] : 1
CC1(C)[C@H](C(=O)O[C@H](C#N)c2cccc(Oc3ccccc3)c2)[C@@H]1/C=C(\Cl)C(F)(F)F (racemic) [λ-Cyhalothrin, λ-cyhalothrin] : 1
C=CC1(C)OC(=O)N(c2cc(Cl)cc(Cl)c2)C1=O (centres unmarked) [Vinclozolin, vinclozolin] : 0.5
Cc1cc(C)nc(Nc2ccccc2)n1 [Pyrimethanil, pyrimethanil] : 1
Oc1ccccc1-c1ccccc1 [o -Phenylphenol, o -phenylphenol] : 1
COc1ccc(C(=CC(=O)N2CCOCC2)c2ccc(Cl)cc2)cc1OC [Dimethomorph, dimethomorph] : 1

Continue with the molecule presented below.
Looking for the measured Portal GI absorption rate into liver (L/h) KAS of CON(C)C(=O)Nc1ccc(Cl)c(Cl)c1 [Linuron, linuron, reference compound] , can you help?
0.5

* * *

# System: NCI-H295R cells
# Assay text: H295R steroidogenesis assay
# Type: cell-based, human
# Study conditions: multiple contrast tests
Measured OH-Progesterone, LOEC accompanies every entry in the list below.
Respond numerically; units are µM and should not be typed.

C=CCOC(Cn1ccnc1)c1ccc(Cl)cc1Cl (stereo not shown) : 0.8
CC1(C(=O)Nc2ccc(O)c(Cl)c2Cl)CCCCC1 [Fenhexamide, fenhexamid] : 25
N#Cc1c[nH]cc1-c1cccc2c1OC(F)(F)O2 : 3.1

Looking for the measured OH-Progesterone, LOEC of COc1ccc(C(=CC(=O)N2CCOCC2)c2ccc(Cl)cc2)cc1OC , can you help?
12.5

* * *

# Assay text: PBK model first-order kinetic parameters fitted to in vivo ADME data
# Parameters: species or system rat
# Study conditions: PBK model parameter
Measured Urine excretion rate from kidney (L/h) KUrine accompanies every entry in the list below.
Respond numerically; units are L/h and should not be typed.

// worked examples, Urine excretion rate from kidney (L/h) KUrine included
Cc1cc(C2CC2)nc(Nc2ccccc2)n1 : 0.2
CONC(=O)Nc1ccc(Cl)c(Cl)c1 : 0.05
CON(C)C(=O)Nc1ccc(Cl)c(Cl)c1 [Linuron, linuron, reference compound] : 0.05
Fc1ccc(Oc2ccnc3cc(Cl)cc(Cl)c23)cc1 : 0.01

Looking for the measured Urine excretion rate from kidney (L/h) KUrine of CC1(C)[C@H](C(=O)O[C@H](C#N)c2cccc(Oc3ccccc3)c2)[C@@H]1/C=C(\Cl)C(F)(F)F (racemic) , can you help?
0.05

Looking for the measured Urine excretion rate from kidney (L/h) KUrine of COc1ccc(C(=CC(=O)N2CCOCC2)c2ccc(Cl)cc2)cc1OC , can you help?
0.01

Looking for the measured Urine excretion rate from kidney (L/h) KUrine of N#Cc1c[nH]cc1-c1cccc2c1OC(F)(F)O2 , can you help?
0.01

Looking for the measured Urine excretion rate from kidney (L/h) KUrine of NC(=O)Nc1ccc(Cl)c(Cl)c1 , can you help?
0.05

Looking for the measured Urine excretion rate from kidney (L/h) KUrine of Cc1cc(C)nc(Nc2ccccc2)n1 , can you help?
0.01

Looking for the measured Urine excretion rate from kidney (L/h) KUrine of CC12CC1(C)C(=O)N(c1cc(Cl)cc(Cl)c1)C2=O (stereo not shown) [Procymidone, procymidone, reference compound] , can you help?
0.08

Looking for the measured Urine excretion rate from kidney (L/h) KUrine of C=CC(C)(OC(=O)Nc1cc(Cl)cc(Cl)c1)C(=O)O (stereo not shown) , can you help?
0.2

Looking for the measured Urine excretion rate from kidney (L/h) KUrine of CC1(C(=O)Nc2ccc(O)c(Cl)c2Cl)CCCCC1 [Fenhexamide, fenhexamid] , can you help?
0.05

Looking for the measured Urine excretion rate from kidney (L/h) KUrine of C=CC(C)(O)C(=O)Nc1cc(Cl)cc(Cl)c1 (stereo not shown) , can you help?
0.2

Looking for the measured Urine excretion rate from kidney (L/h) KUrine of C=CC1(C)OC(=O)N(c2cc(Cl)cc(Cl)c2)C1=O (stereo not shown) , can you help?
0.05

Looking for the measured Urine excretion rate from kidney (L/h) KUrine of Oc1ccccc1-c1ccccc1 , can you help?
0.01

Looking for the measured Urine excretion rate from kidney (L/h) KUrine of C=CCOC(Cn1ccnc1)c1ccc(Cl)cc1Cl (stereo not shown) , can you help?
0.53

* * *

# Assay text: PBK model first-order kinetic parameters fitted to in vivo ADME data
# Set-up: species or system rat
# Study conditions: metabolic clearance, PBK model parameter
Measured Metabolism rate in liver, Total (L/h) KMetab accompanies every entry in the list below.
Respond numerically; units are L/h and should not be typed.

CONC(=O)Nc1ccc(Cl)c(Cl)c1 : 0.02

Looking for the measured Metabolism rate in liver, Total (L/h) KMetab of C=CC1(C)OC(=O)N(c2cc(Cl)cc(Cl)c2)C1=O (centres unmarked) , can you help?
1.4

Looking for the measured Metabolism rate in liver, Total (L/h) KMetab of N#Cc1c[nH]cc1-c1cccc2c1OC(F)(F)O2 , can you help?
0.3

* * *

# Assay text: PBK model first-order kinetic parameters fitted to in vivo ADME data
# Design: species or system rat
# Study conditions: PBK model parameter
Assay endpoint: Fecal excretion rate from gut (L/h) KFeces
Respond numerically; units are L/h and should not be typed.

Oc1ccccc1-c1ccccc1 [o -Phenylphenol, o -phenylphenol] : 0.1

Looking for the measured Fecal excretion rate from gut (L/h) KFeces of Cc1cc(C2CC2)nc(Nc2ccccc2)n1 [Cyprodinil, cyprodinil] , can you help?
1

Looking for the measured Fecal excretion rate from gut (L/h) KFeces of N#Cc1c[nH]cc1-c1cccc2c1OC(F)(F)O2 [Fludioxonil, fludioxonil] , can you help?
3

Looking for the measured Fecal excretion rate from gut (L/h) KFeces of Cc1cc(C)nc(Nc2ccccc2)n1 [Pyrimethanil, pyrimethanil] , can you help?
0.1

Looking for the measured Fecal excretion rate from gut (L/h) KFeces of CON(C)C(=O)Nc1ccc(Cl)c(Cl)c1 [Linuron, linuron, reference compound] , can you help?
0.08

Looking for the measured Fecal excretion rate from gut (L/h) KFeces of CC1(C)[C@H](C(=O)O[C@H](C#N)c2cccc(Oc3ccccc3)c2)[C@@H]1/C=C(\Cl)C(F)(F)F (racemic) [λ-Cyhalothrin, λ-cyhalothrin] , can you help?
4

Looking for the measured Fecal excretion rate from gut (L/h) KFeces of Fc1ccc(Oc2ccnc3cc(Cl)cc(Cl)c23)cc1 [Quinoxyfen, quinoxyphen] , can you help?
2

* * *

# Assay text: PBK model first-order kinetic parameters fitted to in vivo ADME data
# Set-up: species or system rat
# Study conditions: metabolic clearance, PBK model parameter
Measured Metabolism rate in liver, Total (L/h) KMetab accompanies every entry in the list below.
Respond numerically; units are L/h and should not be typed.

CC1(C(=O)Nc2ccc(O)c(Cl)c2Cl)CCCCC1 [Fenhexamide, fenhexamid] : 0.15
CC1(C)[C@H](C(=O)O[C@H](C#N)c2cccc(Oc3ccccc3)c2)[C@@H]1/C=C(\Cl)C(F)(F)F (racemic) [λ-Cyhalothrin, λ-cyhalothrin] : 0.3
CON(C)C(=O)Nc1ccc(Cl)c(Cl)c1 [Linuron, linuron, reference compound] : 1.0
Cc1cc(C)nc(Nc2ccccc2)n1 [Pyrimethanil, pyrimethanil] : 0.8
Oc1ccccc1-c1ccccc1 [o -Phenylphenol, o -phenylphenol] : 0.2

Looking for the measured Metabolism rate in liver, Total (L/h) KMetab of Fc1ccc(Oc2ccnc3cc(Cl)cc(Cl)c23)cc1 [Quinoxyfen, quinoxyphen] , can you help?
0.3

Looking for the measured Metabolism rate in liver, Total (L/h) KMetab of Cc1cc(C2CC2)nc(Nc2ccccc2)n1 [Cyprodinil, cyprodinil] , can you help?
0.01

Looking for the measured Metabolism rate in liver, Total (L/h) KMetab of COc1ccc(C(=CC(=O)N2CCOCC2)c2ccc(Cl)cc2)cc1OC [Dimethomorph, dimethomorph] , can you help?
0.3
